test: BET inhibitor-based combinations targeting novel dependencies in MECOM-rearranged (r) AML: MV-4-11 cell line (AID 2202233); conditions: MV-4-11 AML viability, CellTiter-Glo luminescence, 48 h; series mostly up to 46 µM; note: potency is the fitted concentration of half-maximal effect; nearly all actives have a fitted effect of over 45% in size
Inconclusive results are not listed. Activity calls are given as the source filed them. Calls come from the whole dose curve; as a rule, active = well fitted inhibition curve with a large enough effect; inconclusive = small, poorly fitted or top-dose-only effect; inactive = no such curve, though single readings can be large or run the other way.
Each entry below carries its reported Potency.

{"SAMPLE SMILES": "C[C@@]12C(=O)OC(=O)[C@]1(C)[C@H]1CC[C@@H]2O1", "Potency": "3.32 µM (active)"}
{"SAMPLE SMILES": "CC(C)Oc1ccc(-c2nn([C@@H](C)c3oc4ccc(F)cc4c(=O)c3-c3cccc(F)c3)c3ncnc(N)c23)cc1F", "Potency": "16.6 µM (active)"}
{"SAMPLE SMILES": "O=c1cc(-c2cccc3c2Sc2ccccc2S3)oc(N2CCOCC2)c1", "Potency": "18.6 µM (active)"}
{"SAMPLE SMILES": "CC(C)(C)c1nc2c3cc[nH]c(=O)c3c3cc(F)ccc3c2[nH]1", "Potency": "1.18 µM (active)"}

====

target: Aldehyde dehydrogenase 1A1 (Homo sapiens) (UniProt P00352); assay: qHTS for Inhibitors of the Aldehyde Dehydrogenase Family (ALDH1A1) Confirmatory screens (AID 2061316); details: ALDH inhibition qHTS; series mostly up to 47.3 µM; note: potency is the fitted concentration of half-maximal effect; nearly all actives have a fitted effect of over 65% in size
Results filed as inconclusive are left out. The source made the active and inactive calls. The call rests on the fitted dose curve; in most records, active means well fitted inhibition curve with a large enough effect; inconclusive means small, poorly fitted or top-dose-only effect; inactive means no such curve, though single readings can be large or run the other way.
Recorded measurements of Potency, one per entry

{"COMPOUND": "NC(=O)C1CCN(c2ncc(Br)s2)CC1", "Potency": "4.49 µM (active)"}
{"COMPOUND": "O=C(NCc1ccc2c(c1)OCO2)c1csc(N2CCN(c3ccc(F)cc3)CC2)n1", "Potency": "4.47 µM (active)"}
{"COMPOUND": "COc1ccc(C2Nc3cccc(OC)c3C(=O)N2Cc2ccccc2)cc1COc1ccc(NC(C)=O)cc1 (stereo not drawn)", "Potency": "11.3 µM (active)"}

====

assay: BET inhibitor-based combinations targeting novel dependencies in MECOM-rearranged (r) AML: UCSD-AML1 cell line (AID 2202235); conditions: UCSD-AML1 AML cells viability, CellTiter-Glo, 48 h; series mostly up to 46 µM; note: nearly all actives have a fitted effect of over 40% in size; note: potency is the fitted concentration of half-maximal effect
Results filed as inconclusive are left out. Calls of active or inactive are those of the source. The call rests on the fitted dose curve; in most records, active means well fitted inhibition curve with a large enough effect; inconclusive means small, poorly fitted or top-dose-only effect; inactive means no such curve, though single readings can be large or run the other way.
MEASURE NAME: Potency

{"SAMPLE SMILES": "C[C@@H](Oc1ccc2[nH]nc(/C=C/c3cnn(CCO)c3)c2c1)c1c(Cl)cncc1Cl", "MEAS VALUE": "1050 nM (active)"}
{"SAMPLE SMILES": "CN[C@@H](C)C(=O)N[C@H](C(=O)N1CCC[C@H]1C(=O)Nc1sc(-c2ncco2)nc1-c1ccccc1)C1CCCCC1", "MEAS VALUE": "1180 nM (active)"}
{"SAMPLE SMILES": "COc1cc(C)[nH]c(=O)c1CN1CCc2c(Cl)cc([C@H](OC)C3COC3)c(Cl)c2C1=O", "MEAS VALUE": "inactive"}
{"SAMPLE SMILES": "C[C@@H](O)[C@@H]1NC(=O)[C@H](CCCCN)NC(=O)[C@@H](Cc2c[nH]c3ccccc23)NC(=O)[C@H](Cc2ccccc2)NC(=O)[C@@H](NC(=O)[C@H](N)Cc2ccccc2)CSSC[C@@H](C(=O)N[C@H](CO)[C@@H](C)O)NC1=O", "MEAS VALUE": "inactive"}
{"SAMPLE SMILES": "CC(C)OC(=O)[C@H](C)N[P@](=O)(OC[C@H]1O[C@@H](n2ccc(=O)[nH]c2=O)[C@](C)(F)[C@@H]1O)Oc1ccccc1", "MEAS VALUE": "inactive"}
{"SAMPLE SMILES": "C=C1CC[C@@H]2[C@](C)(CO)[C@H](O)CC[C@@]2(C)[C@@H]1C/C=C1/C(=O)OC[C@H]1O", "MEAS VALUE": "10500 nM (active)"}
{"SAMPLE SMILES": "C[C@@H]1CC(=O)Nc2cccc(-c3cnn(C(C)(C)C)c3)c2N1", "MEAS VALUE": "14800 nM (active)"}
{"SAMPLE SMILES": "O=C1NC(=O)[C@@H](c2c[nH]c3ccccc23)[C@H]1c1cn2c3c(cccc13)CCC2", "MEAS VALUE": "1050 nM (active)"}
{"SAMPLE SMILES": "C[C@]1(C(=O)N(CCCC(=O)O)Cc2cccc(Cl)c2)CCN1C(=O)c1csc2ccccc12", "MEAS VALUE": "inactive"}

====

experiment: qHTS for Inhibitors of the Aldehyde Dehydrogenase Family (ALDH1A2, ALDH1A3, ALDH2, ALDH3A1) (AID 2061307); settings: ALDH inhibition qHTS; series mostly up to 50.3 µM; note: nearly all actives have a fitted effect of over 50% in size
Results filed as inconclusive are left out. Active and inactive are the calls of the source. The call rests on the fitted dose curve; in most records, active means well fitted inhibition curve with a large enough effect; inconclusive means small, poorly fitted or top-dose-only effect; inactive means no such curve, though single readings can be large or run the other way.
Possible outcomes: active, inactive

{"MOLECULE": "Cc1ccn2c(=O)c(C(=O)NC(C)c3ccccc3)c(O)nc2c1 (stereo unspecified)", "ASSIGNED CATEGORY": "inactive"}
{"MOLECULE": "O=C([C@H](Cc1ccc(O[S+](=O)([O-])c2cccnc2)cc1)N[S+](=O)([O-])c1ccccn1)N1CCN(c2ccccc2)CC1", "ASSIGNED CATEGORY": "active"}
{"MOLECULE": "O=C(Cc1ccc(F)cc1)Nc1cccc(-c2nc3cccnc3s2)c1", "ASSIGNED CATEGORY": "inactive"}
{"MOLECULE": "CCc1ccc(NC(=O)c2cc3c(=O)n(Cc4cccnc4)ccc3nc2C)cc1", "ASSIGNED CATEGORY": "inactive"}
{"MOLECULE": "Cc1oc(-c2ccccc2F)nc1CS(=O)(=O)CC(=O)N1CCN(c2cccc(C(F)(F)F)c2)CC1", "ASSIGNED CATEGORY": "inactive"}
{"MOLECULE": "O=Cc1ccc(Sc2ccccn2)o1", "ASSIGNED CATEGORY": "inactive"}
{"MOLECULE": "Cc1cc(-c2nnc3n2CCCCC3)c(C)n1-c1ccc(Cl)c(Cl)c1", "ASSIGNED CATEGORY": "inactive"}
{"MOLECULE": "NC(=O)C1CCN(c2nc(-c3ccccc3N)cs2)CC1", "ASSIGNED CATEGORY": "active"}
{"MOLECULE": "O=S(=O)(c1ccc2c(c1)OCO2)N1CCN(S(=O)(=O)c2c(F)cccc2F)CC1", "ASSIGNED CATEGORY": "inactive"}
{"MOLECULE": "CC(C)C(=O)OCc1ccc(-c2nn(Cc3ccccc3)c3ccccc23)o1", "ASSIGNED CATEGORY": "inactive"}
{"MOLECULE": "N#Cc1nc(Nc2ccccc2)nc(NC2CCCCC2)n1", "ASSIGNED CATEGORY": "active"}

====

target: Retinaldehyde dehydrogenase 3 (Homo sapiens) (UniProt P47895); assay: qHTS for Inhibitors of the Aldehyde Dehydrogenase Family (ALDH1A3) Confirmatory screens (AID 2061311); settings: ALDH inhibition qHTS; series mostly up to 46 µM; note: nearly all actives have a fitted effect of over 60% in size
Records with an inconclusive call do not appear. Activity calls are given as the source filed them. Calls come from the whole dose curve; as a rule, active = well fitted inhibition curve with a large enough effect; inconclusive = small, poorly fitted or top-dose-only effect; inactive = no such curve, though single readings can be large or run the other way.
Outcomes: 1 (yes) = active, 0 (no) = inactive

{"COMPOUND": "O=C(c1ccco1)N1CCN(c2nc(-c3ccc(Br)cc3)cs2)CC1", "SUBJECT OF TEST": "Retinaldehyde dehydrogenase 3 (Homo sapiens) (UniProt P47895)", "ASSIGNED CATEGORY": "1 (yes)"}
{"COMPOUND": "CCOc1ccc(NC(=O)N2CCN(c3ccc(Cl)c(Cl)c3)CC2)cc1", "SUBJECT OF TEST": "Retinaldehyde dehydrogenase 3 (Homo sapiens) (UniProt P47895)", "ASSIGNED CATEGORY": "0 (no)"}
{"COMPOUND": "O=C(CC1CCOCC1)NCc1ccc(N2CCOCC2)cc1", "SUBJECT OF TEST": "Retinaldehyde dehydrogenase 3 (Homo sapiens) (UniProt P47895)", "ASSIGNED CATEGORY": "0 (no)"}
{"COMPOUND": "CCOC(=O)c1c(C)n(-c2ccccc2)c2ccc(OC(=O)c3ccccc3)cc12", "SUBJECT OF TEST": "Retinaldehyde dehydrogenase 3 (Homo sapiens) (UniProt P47895)", "ASSIGNED CATEGORY": "0 (no)"}
{"COMPOUND": "CC(C)(C)OC(=O)N1CCN(c2ccc(NCc3occc3-c3ccc(C#N)cc3)cc2)CC1", "SUBJECT OF TEST": "Retinaldehyde dehydrogenase 3 (Homo sapiens) (UniProt P47895)", "ASSIGNED CATEGORY": "1 (yes)"}
{"COMPOUND": "NC(=O)C1CCN(c2nc(-c3ccc(-c4ccccc4)cc3)cs2)CC1", "SUBJECT OF TEST": "Retinaldehyde dehydrogenase 3 (Homo sapiens) (UniProt P47895)", "ASSIGNED CATEGORY": "1 (yes)"}
{"COMPOUND": "Cc1ccc(-c2cc(C(=O)NCc3cccc(F)c3)nn3cnnc23)cc1", "SUBJECT OF TEST": "Retinaldehyde dehydrogenase 3 (Homo sapiens) (UniProt P47895)", "ASSIGNED CATEGORY": "1 (yes)"}
{"COMPOUND": "O=C(CSc1nc(-c2ccco2)nc2cc(=O)[nH]n12)Nc1ccccc1Cl", "SUBJECT OF TEST": "Retinaldehyde dehydrogenase 3 (Homo sapiens) (UniProt P47895)", "ASSIGNED CATEGORY": "0 (no)"}
{"COMPOUND": "Cc1ccc(C(=O)c2cn(Cc3cccc(F)c3)c3nc(C)ccc3c2=O)cc1", "SUBJECT OF TEST": "Retinaldehyde dehydrogenase 3 (Homo sapiens) (UniProt P47895)", "ASSIGNED CATEGORY": "0 (no)"}
{"COMPOUND": "O=C(Nc1ccc(Oc2ccccc2)cc1)c1ccc(F)c(S(=O)(=O)N2CCN(c3cccc(Cl)c3)CC2)c1", "SUBJECT OF TEST": "Retinaldehyde dehydrogenase 3 (Homo sapiens) (UniProt P47895)", "ASSIGNED CATEGORY": "0 (no)"}
{"COMPOUND": "Cc1ccc(OCCn2c(CCNC(=O)c3cccc(C(F)(F)F)c3)nc3ccccc32)cc1", "SUBJECT OF TEST": "Retinaldehyde dehydrogenase 3 (Homo sapiens) (UniProt P47895)", "ASSIGNED CATEGORY": "0 (no)"}
{"COMPOUND": "COc1ccc(-n2c(C)c(C(C)=O)c3ccccc32)cc1", "SUBJECT OF TEST": "Retinaldehyde dehydrogenase 3 (Homo sapiens) (UniProt P47895)", "ASSIGNED CATEGORY": "1 (yes)"}
{"COMPOUND": "COCCOc1cnc2ccn([C@H](C)c3nnc4c(F)cc(-c5cnn(C)c5)cn34)c(=O)c2c1", "SUBJECT OF TEST": "Retinaldehyde dehydrogenase 3 (Homo sapiens) (UniProt P47895)", "ASSIGNED CATEGORY": "1 (yes)"}
{"COMPOUND": "N#Cc1cccc(C#N)c1-c1nc2c3ccccc3c3cc(Cl)ccc3c2[nH]1", "SUBJECT OF TEST": "Retinaldehyde dehydrogenase 3 (Homo sapiens) (UniProt P47895)", "ASSIGNED CATEGORY": "1 (yes)"}
{"COMPOUND": "Fc1cccc(Cc2noc(-c3nc(-c4ccccc4)no3)n2)c1", "SUBJECT OF TEST": "Retinaldehyde dehydrogenase 3 (Homo sapiens) (UniProt P47895)", "ASSIGNED CATEGORY": "0 (no)"}
{"COMPOUND": "c1cc2c(cc1CNc1ccc(N3CCOCC3)cc1)OCO2", "SUBJECT OF TEST": "Retinaldehyde dehydrogenase 3 (Homo sapiens) (UniProt P47895)", "ASSIGNED CATEGORY": "1 (yes)"}
{"COMPOUND": "Cc1ccc(-c2ccc(=O)n(CC(=O)NCCc3ccccc3)n2)cc1", "SUBJECT OF TEST": "Retinaldehyde dehydrogenase 3 (Homo sapiens) (UniProt P47895)", "ASSIGNED CATEGORY": "1 (yes)"}
{"COMPOUND": "CNS(=O)(=O)c1ccc(Cc2c(-c3cccc(-c4ccccc4)c3)[nH]n(-c3nc(C(=O)O)cs3)c2=O)cc1", "SUBJECT OF TEST": "Retinaldehyde dehydrogenase 3 (Homo sapiens) (UniProt P47895)", "ASSIGNED CATEGORY": "1 (yes)"}
{"COMPOUND": "COc1ccc(Cn2c(=O)[nH]c3cc(C(=O)N4CCN(c5ccccc5)CC4)ccc3c2=O)cc1", "SUBJECT OF TEST": "Retinaldehyde dehydrogenase 3 (Homo sapiens) (UniProt P47895)", "ASSIGNED CATEGORY": "0 (no)"}
{"COMPOUND": "Cc1cc(C)cc(-c2ccccc2C=O)c1", "SUBJECT OF TEST": "Retinaldehyde dehydrogenase 3 (Homo sapiens) (UniProt P47895)", "ASSIGNED CATEGORY": "0 (no)"}
{"COMPOUND": "O=C1c2ccccc2C(=O)c2cc(S(=O)(=O)Nc3cccc4cccnc34)ccc21", "SUBJECT OF TEST": "Retinaldehyde dehydrogenase 3 (Homo sapiens) (UniProt P47895)", "ASSIGNED CATEGORY": "1 (yes)"}
{"COMPOUND": "Oc1ccc(COCc2ccc(F)cc2)c2cccnc12", "SUBJECT OF TEST": "Retinaldehyde dehydrogenase 3 (Homo sapiens) (UniProt P47895)", "ASSIGNED CATEGORY": "1 (yes)"}
{"COMPOUND": "O=C1Cc2cc(S(=O)(=O)N3CCNCC3)ccc2N1", "SUBJECT OF TEST": "Retinaldehyde dehydrogenase 3 (Homo sapiens) (UniProt P47895)", "ASSIGNED CATEGORY": "0 (no)"}
{"COMPOUND": "COc1cccc(S(=O)(=O)N2CCC3(CC2)CC(CC(=O)NC2CC2)CCO3)c1 (centres undefined)", "SUBJECT OF TEST": "Retinaldehyde dehydrogenase 3 (Homo sapiens) (UniProt P47895)", "ASSIGNED CATEGORY": "0 (no)"}
